molecular target: C-X-C chemokine receptor type 6 (Homo sapiens) (UniProt O00574); test: potency against CXCR6 with APJ panel – cell-based, beta-arrestin, DiscoveRx, uHTS hits, dose response (AID 624129); conditions: CXCR6 beta-arrestin (DiscoveRx) antagonist cell assay, CXCR6, run 1, dose range 2
Sequence (O00574 whole entry, looked up): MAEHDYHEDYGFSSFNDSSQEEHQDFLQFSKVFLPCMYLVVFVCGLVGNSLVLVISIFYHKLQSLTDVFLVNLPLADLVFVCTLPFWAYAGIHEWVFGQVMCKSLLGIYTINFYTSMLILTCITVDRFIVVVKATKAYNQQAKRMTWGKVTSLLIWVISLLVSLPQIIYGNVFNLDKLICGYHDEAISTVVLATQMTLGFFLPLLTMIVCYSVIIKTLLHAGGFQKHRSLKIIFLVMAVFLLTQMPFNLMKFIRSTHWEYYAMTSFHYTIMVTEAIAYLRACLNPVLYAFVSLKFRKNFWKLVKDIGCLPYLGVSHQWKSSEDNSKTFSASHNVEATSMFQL
Measured IC50, listed per entry for reference.
assay.endpoint: IC50

compound=CCOc1ccc(/C=C/[N+](=O)[O-])c2ccccc12 test_value="17.3 µM"
compound=Cc1cc(C)nc(S/C=C/C(=O)c2ccccc2)n1 test_value="22.6 µM"
compound=COc1ccc(-c2nn(C)c(=O)c3ccccc23)cc1NC(=O)Cn1nc(C)c2ccccc2c1=O test_value="21.8 µM"
compound=CCN(CC)CCn1c(N)c(S(=O)(=O)c2ccccc2)c2nc3ccccc3nc21 test_value="13.2 µM"
compound=COc1ccc(C(=O)/C(=C\c2ccco2)N2C=CC=CC2=C(C#N)C#N)cc1 test_value="4.61 µM"
compound=CCS(=O)(=O)c1ncc(Cl)c(C(=O)Nc2ccc(S(=O)(=O)N3CCC(C)CC3)cc2)n1 test_value="8.3 µM"
compound=CCCOc1cccc(-c2cc(C(=O)N/N=C/c3ccccn3)c3ccccc3n2)c1 test_value="4.31 µM"
compound="C/C(=N\\NC(=O)C1COc2ccccc2O1)c1ccccn1 (stereo unspecified)" test_value="3.86 µM"
compound=COC(=O)C1=C(C(=O)OC)C2OC1c1cc3ccccc3cc12 test_value="12.3 µM"
compound=Oc1c(Br)cc(Br)cc1C=NCc1ccccc1 test_value="10.2 µM"
compound=CN(c1ccccc1)c1ccc(/C=C/[N+](=O)[O-])cc1 test_value="10.3 µM"
compound="CC1=C(CO)C(=O)OC([C@@H](C)C2CC[C@H]3C4C[C@H]5O[C@]56[C@@H](O)C=CC(=O)[C@]6(C)C4CC[C@]23C)C1 (stereo partly specified)" test_value="12.2 µM"
compound=C=CC[C@H](CC(=O)N(CCO)Cc1ccccc1)C(=O)NC[C@H](OC(=O)[C@@H](CC=C)CC(=O)OC(C)(C)C)c1ccccc1 test_value="33.1 µM"
compound=NC(=S)N/N=C/c1ncc(C(F)(F)F)cc1Cl test_value="3.67 µM"
compound=Oc1cccc2ccc(/C=C/c3c(F)cccc3Cl)nc12 test_value="3.78 µM"
compound=O=[N+]([O-])c1c(NCCCO)cc(Sc2ccc(Cl)cc2)c2nonc12 test_value="3.9 µM"
compound=O=C1C=CC(=O)N1CCCCCCCCCCN1C(=O)C=CC1=O test_value="15.1 µM"
compound=CN(CCO)c1cc(Sc2nc3ccccc3s2)c2nonc2c1[N+](=O)[O-] test_value="8.56 µM"
compound=O=[N+]([O-])c1ccc(Sc2nc3ccccc3o2)c([N+](=O)[O-])c1 test_value="70.5 µM"
compound=COc1ccc(OC)c(/C=C/c2ccc3cccc(O)c3n2)c1 test_value="5.17 µM"
compound=O=S(=O)(/C=C/C=C/S(=O)(=O)c1ccccc1)c1ccccc1 test_value="10.1 µM"

Reference source: PubChem BioAssay AID624129
